test system: SETVI (green foxtail); test: Post-Emergent Test III (Wheat and Barley); format: in vivo, Setaria viridis; conditions: Setaria viridis, post-emergence, 504 h; 140 g ai/ha, postemergence; read-out: Visual Growth Reduction (%) 21 Days After Application, SETVI

Record smiles | pest or weed control at 140 g/ha
COC(=O)c1nc(-c2ccc(Cl)c(F)c2OC)c(F)c(N)c1Cl | 45 to 59%
COC(=O)c1nc(-c2ccc(OC(F)F)nc2)c(F)c(N)c1Cl | 75 to 84%
Nc1c(F)c(-c2ccc(OC(F)F)nc2)nc(C(=O)O)c1Cl | 75 to 84%
COC(=O)c1nc(-c2ccc(Cl)c(F)c2OC)cc(N)c1Cl | 60 to 74%
COC(=O)c1nc(-c2ccc(C3CC3)nc2)c(F)c(N)c1Cl | 95 to 100%
Nc1c(Cl)c(C(=O)O)nc(-c2ccc(C(F)(F)F)nc2)c1Cl | 60 to 74%

====

tested on: Key Broadleaf Weed and Crop Species; assay: Post-Emergent Test II (Table 5); format: in vivo; conditions: Euphorbia heterophylla, post-emergence, 336 h, EPHHL: wild poinsettia (Euphorbia heterophylla), application rate 140 (kg ai/ha; footnote: g ai/ha), read-out: Visual Growth Reduction (%) 14 Days After Application EPHHL
This section presents molecules with their documented pest or weed control at 140 g/ha values.

Record smiles | pest or weed control at 140 g/ha
COC(=O)c1nc(-c2ccc(C(F)(F)F)nc2)c(Cl)c(N)c1Cl | 30 to 44%
COC(=O)c1nc(-c2ccc(OC(F)F)nc2)c(F)c(N)c1Cl | 95 to 100%
COC(=O)c1nc(-c2ccc(C(F)(F)F)nc2)c(C)c(N)c1Cl | 0 to 29%
Cc1c(-c2nc(C(=O)O)c(Cl)c(N)c2F)ccc(Cl)c1F | 0 to 29%
Nc1cc(-c2ccc(Cl)c(F)c2C(=O)O)nc(C(=O)O)c1Cl | 0 to 29%
C=Cc1c(-c2cc(N)c(Cl)c(C(=O)OC)n2)ccc(Cl)c1F | 0 to 29%
COC(=O)c1nc(-c2ccc(C(F)(F)F)nc2OC)cc(N)c1Cl | 0 to 29%
COC(=O)c1nc(-c2ccc(Cl)c(F)c2C(F)F)cc(N)c1Cl | 0 to 29%
COC(=O)c1nc(-c2ccc(Cl)c(F)c2CO)cc(N)c1Cl | 0 to 29%
Nc1c(F)c(-c2ccc(Br)nc2)nc(C(=O)O)c1Cl | 95 to 100%
Cc1c(-c2cc(N)c(Cl)c(C(=O)O)n2)ccc(Cl)c1F | 85 to 94%
COC(=O)c1nc(-c2ccc(Cl)nc2F)cc(N)c1Cl | 45 to 59%
COC(=O)c1nc(-c2ccc(C(F)(F)F)nc2)cc(N)c1Cl | 85 to 94%
Cc1c(-c2ccc(C(F)(F)F)nc2)nc(C(=O)O)c(Cl)c1N | 0 to 29%
COC(=O)c1nc(-c2ccc(C(F)(F)F)nc2C)c(F)c(N)c1Cl | 0 to 29%
Nc1c(F)c(-c2ccc(Cl)c(F)c2Cl)nc(C(=O)O)c1Cl | 95 to 100%
Nc1c(Cl)c(C(=O)O)nc(-c2ccc(C(F)(F)F)nc2)c1Cl | 75 to 84%
COc1ccc(-c2nc(C(=O)O)c(Cl)c(N)c2F)cn1 | 95 to 100%
COC(=O)c1nc(-c2ccc(C(F)(F)F)nc2OC)c(F)c(N)c1Cl | 0 to 29%
COC(=O)c1nc(-c2ccc(Cl)c(F)c2OC)cc(N)c1Cl | 0 to 29%
COC(=O)c1nc(-c2ccc(F)c(F)c2C)cc(N)c1Cl | 0 to 29%
Cc1c(F)c(Cl)cc(F)c1-c1cc(N)c(Cl)c(C(=O)O)n1 | 30 to 44%
Nc1cc(-c2ccc(Cl)c(Cl)c2Cl)nc(C(=O)O)c1Cl | 95 to 100%
COC(=O)c1nc(-c2ccc(Cl)nc2OC)cc(N)c1Cl | 0 to 29%
COC(=O)c1nc(-c2ccc(Cl)nc2F)c(F)c(N)c1Cl | 45 to 59%
Nc1cc(-c2ccc(Cl)nc2Cl)nc(C(=O)O)c1Cl | 0 to 29%
COC(=O)c1nc(-c2ccc(Cl)c(F)c2Cl)nc(N)c1OC | 60 to 74%
COC(=O)c1nc(-c2ccc(Cl)c(F)c2C(=O)O)cc(N)c1Cl | 0 to 29%
COC(=O)c1nc(-c2ccc(C(F)(F)F)nc2)nc(N)c1OC | 60 to 74%
COC(=O)c1nc(-c2ccc(Cl)c(F)c2OC)nc(N)c1OC | 0 to 29%
COC(=O)c1nc(-c2ccc(I)nc2)c(F)c(N)c1Cl | 85 to 94%
Nc1cc(-c2ccc(Cl)c(F)c2CO)nc(C(=O)O)c1Cl | 0 to 29%
COC(=O)c1nc(-c2ccc(C(F)(F)F)nc2)c(F)c(N)c1Cl | 95 to 100%
COC(=O)c1nc(-c2ccc(Cl)c(F)c2C)nc(N)c1OC | 0 to 29%
Nc1cc(-c2ccc(Cl)c(F)c2C(F)F)nc(C(=O)O)c1Cl | 0 to 29%
COc1nc(C(F)(F)F)ccc1-c1cc(N)c(Cl)c(C(=O)O)n1 | 0 to 29%
COc1nc(Cl)ccc1-c1cc(N)c(Cl)c(C(=O)O)n1 | 0 to 29%
COC(=O)c1nc(-c2ccc(C(F)(F)F)nc2F)cc(N)c1Cl | 0 to 29%
